# ASSAY DETAILS: Inhibition of HIV1 reverse transcriptase p66/p51 G190A mutant using poly(rA) template and measured after 40 mins by picogreen based spectrofluorometry
# Design: species or system Human immunodeficiency virus 1
Kindly state pIC50 for each of the entries shown.
Hey, just a heads up that pIC50 is the negative log base 10 of the concentration in molar.

Look up pIC50 for this compound: `O=c1cc(COCc2ccccc2)n(COCc2ccccc2)c(=O)[nH]1` 3.66

Look up pIC50 for this compound: `N#Cc1ccc(COCn2c(COCc3ccccc3)cc(=O)[nH]c2=O)cc1` 3.76

Look up pIC50 for this compound: `Cc1cc(C)cc(COCn2c(COCc3ccccc3)cc(=O)[nH]c2=O)c1` 4.96

Look up pIC50 for this compound: Cc1cc(C#N)cc(C)c1Oc1nc(Nc2ccc(C#N)cc2)nc(N)c1Br [ETRAVIRINE] 7.70

----------
# ASSAY DETAILS: Cytotoxicity against MDCK cells assessed as cell viability measured after 4 days by formazan-based MTS assay
# Parameters: species or system Canis lupus familiaris
# MEASUREMENT SETUP: dog
TEST READOUT: CC50 at 96 h

Look up CC50 at 96 h for this compound: `CC(C)CCOCn1c(COCc2ccccc2)cc(=O)[nH]c1=O` > 100 µM

Look up CC50 at 96 h for this compound: `Cc1ccc(COCc2c(Br)c(=O)[nH]c(=O)n2COCc2ccccc2)cc1` > 100 µM

Look up CC50 at 96 h for this compound: `O=c1cc(COCc2ccccc2)n(COCc2ccccc2)c(=O)[nH]1` > 100 µM

Look up CC50 at 96 h for this compound: CCC(CC)O[C@@H]1C=C(C(=O)O)C[C@H](N)[C@H]1NC(C)=O [OSELTAMIVIR CARBOXYLATE] > 100 µM

Look up CC50 at 96 h for this compound: `O=c1cc(COCc2ccc(Cl)cc2)n(COCc2ccccc2)c(=O)[nH]1` ≥ 53 µM

Look up CC50 at 96 h for this compound: CC(N)C12CC3CC(CC(C3)C1)C2 (stereo not given) > 200 µM

Look up CC50 at 96 h for this compound: CC(OCn1c(COCc2ccccc2)cc(=O)[nH]c1=O)c1ccccc1 (stereo not given) > 100 µM

Look up CC50 at 96 h for this compound: `O=c1cc(COCc2ccccc2)n(COCc2cc(Cl)cc(Cl)c2)c(=O)[nH]1` > 100 µM

Look up CC50 at 96 h for this compound: `O=c1[nH]c(=O)n(COCc2ccccc2)c(COCc2ccccc2)c1Cl` > 100 µM

Look up CC50 at 96 h for this compound: `O=c1[nH]c(=O)n(COCc2ccccc2)c(COCc2ccccc2)c1I` > 100 µM

----------
# ASSAY DETAILS: Selectivity index, ratio of CC50 for human MT4 cells to EC50 for HIV-1 3B infected in human MT4 cells
# Assay type: toxicity, cell-based
# MEASUREMENT SETUP: MT4 cells (uninfected for CC50; HIV-1 3B infected for EC50)
Kindly state selectivity ratio for each of the entries shown.
Give only the figure.

Look up selectivity ratio for this compound: `O=c1cc(COCc2ccccc2)n(COCc2cc(Cl)cc(Cl)c2)c(=O)[nH]1` 4

Look up selectivity ratio for this compound: `N#Cc1ccc(COCn2c(COCc3ccccc3)cc(=O)[nH]c2=O)cc1` 8

Look up selectivity ratio for this compound: `Cc1ccc(COCc2cc(=O)[nH]c(=O)n2COCc2ccccc2)cc1` 49

Look up selectivity ratio for this compound: `CC(C)CCOCn1c(COCc2ccccc2)cc(=O)[nH]c1=O` 1.2

Look up selectivity ratio for this compound: `Cc1cc(C)cc(COCn2c(COCc3ccccc3)cc(=O)[nH]c2=O)c1` 22

Look up selectivity ratio for this compound: `O=c1cc(COCc2ccc(Cl)cc2)n(COCc2ccccc2)c(=O)[nH]1` 17

----------
# ASSAY DETAILS: Selectivity index, ratio of CC50 for human MT4 cells to EC50 for HIV-1 3B infected in human MT4 cells
# Format: toxicity, cell-based
# MEASUREMENT SETUP: MT4 cells (uninfected for CC50; HIV-1 3B infected for EC50)
Kindly state selectivity ratio for each of the entries shown.
Give only the figure.

Look up selectivity ratio for this molecule: `O=c1[nH]c(=O)n(COCc2ccccc2)c(COCc2ccccc2)c1Cl` 8

Look up selectivity ratio for this molecule: `O=c1[nH]c(=O)n(COCc2ccccc2)c(COCc2ccccc2)c1Br` 4

Look up selectivity ratio for this molecule: `O=c1cc(COCc2ccccc2)n(COCc2ccccc2)c(=O)[nH]1` 224

----------
# ASSAY DETAILS: Cytotoxicity against human MT4 cells after 5 days MTT assay
# Assay type: cell-based
TEST READOUT: CC50 at 120 h (µM)
# unit: µM | format: bare number

Look up CC50 at 120 h for this compound: `O=c1cc(COCc2ccc(Cl)cc2)n(COCc2ccccc2)c(=O)[nH]1` 28

Look up CC50 at 120 h for this compound: `O=c1[nH]c(=O)n(COCc2ccccc2)c(COCc2ccccc2)c1Br` 29

Look up CC50 at 120 h for this compound: `O=c1[nH]c(=O)n(COCc2ccccc2)c(COCc2ccccc2)c1I` 18

Look up CC50 at 120 h for this compound: `Cc1cc(C)cc(COCn2c(COCc3ccccc3)cc(=O)[nH]c2=O)c1` 47

Look up CC50 at 120 h for this compound: `Cc1ccc(COCc2c(Br)c(=O)[nH]c(=O)n2COCc2ccccc2)cc1` 27

Look up CC50 at 120 h for this compound: `N#Cc1ccc(COCn2c(COCc3ccccc3)cc(=O)[nH]c2=O)cc1` 29

Look up CC50 at 120 h for this compound: `O=c1cc(COCc2ccccc2)n(COCc2cc(Cl)cc(Cl)c2)c(=O)[nH]1` 26

Look up CC50 at 120 h for this compound: `CC(C)CCOCn1c(COCc2ccccc2)cc(=O)[nH]c1=O` 56

Look up CC50 at 120 h for this compound: `O=c1[nH]c(=O)n(COCc2ccccc2)c(COCc2ccccc2)c1Cl` 72

Look up CC50 at 120 h for this compound: CC(OCn1c(COCc2ccccc2)cc(=O)[nH]c1=O)c1ccccc1 (centres undefined) 49

----------
Kindly state EC50 for each of the entries shown.
# Tested on: Human immunodeficiency virus 1
# ASSAY DETAILS: Antiviral activity against HIV-1 3B infected in human MT4 cells assessed as reduction of virus-induced cytopathic effect after 5 days by MTT assay
# Assay type: functional, organism-based
# MEASUREMENT SETUP: Human immunodeficiency virus 1, 3B, MT4, 120 h

Look up EC50 for this molecule: `O=c1[nH]c(=O)n(COCc2ccccc2)c(COCc2ccccc2)c1I` ≥ 5.2 µM

Look up EC50 for this molecule: `O=c1[nH]c(=O)n(COCc2ccccc2)c(COCc2ccc(Cl)cc2)c1Br` > 25 µM

Look up EC50 for this molecule: `Cc1ccc(COCc2c(Br)c(=O)[nH]c(=O)n2COCc2ccccc2)cc1` > 27 µM

Look up EC50 for this molecule: CC(OCn1c(COCc2ccccc2)cc(=O)[nH]c1=O)c1ccccc1 (centres undefined) > 49 µM

----------
# TESTED SYSTEM: Human immunodeficiency virus type 1 reverse transcriptase (Human immunodeficiency virus 1, UniProt Q72547, L100I)
# ASSAY DETAILS: Inhibition of HIV1 reverse transcriptase p66/p51 L100I mutant using poly(rA) template and measured after 40 mins by picogreen based spectrofluorometry
TEST READOUT: IC50

Look up IC50 for this molecule: `O=c1cc(COCc2ccccc2)n(COCc2cc(Cl)cc(Cl)c2)c(=O)[nH]1` ≥ 199 µM

Look up IC50 for this molecule: `O=c1cc(COCc2ccc(Cl)cc2)n(COCc2ccccc2)c(=O)[nH]1` ≥ 218 µM

Look up IC50 for this molecule: `O=c1cc(COCc2ccccc2)n(COCc2ccccc2)c(=O)[nH]1` > 340 µM

----------
# TESTED SYSTEM: Human immunodeficiency virus type 1 reverse transcriptase (Human immunodeficiency virus 1, UniProt Q72547, K103N/Y181C)
# ASSAY DETAILS: Inhibition of HIV1 3B reverse transcriptase p66/p51 K103N/Y181C mutant using poly(rA) template and measured after 40 mins by picogreen based spectrofluorometry
pIC50: −log10 of the molar value.
Kindly state pIC50 for each of the entries shown.

Look up pIC50 for this compound: `O=c1cc(COCc2ccccc2)n(COCc2cc(Cl)cc(Cl)c2)c(=O)[nH]1` < 3.55

Look up pIC50 for this compound: `O=c1cc(COCc2ccccc2)n(COCc2ccccc2)c(=O)[nH]1` < 3.47

Look up pIC50 for this compound: `Cc1cc(C)cc(COCn2c(COCc3ccccc3)cc(=O)[nH]c2=O)c1` < 3.50
